- system: Human sputum elastase (HSE) / Human Leukocyte Elastase (HLE) (Homo sapiens)
- Construct: Human sputum elastase (HSE ) (Elasten Products Co., Pacific, Mo.); purchased Elasten Products Co., Pacific, Mo; host or cells: human sputum
- Sequence (P08246 30-267): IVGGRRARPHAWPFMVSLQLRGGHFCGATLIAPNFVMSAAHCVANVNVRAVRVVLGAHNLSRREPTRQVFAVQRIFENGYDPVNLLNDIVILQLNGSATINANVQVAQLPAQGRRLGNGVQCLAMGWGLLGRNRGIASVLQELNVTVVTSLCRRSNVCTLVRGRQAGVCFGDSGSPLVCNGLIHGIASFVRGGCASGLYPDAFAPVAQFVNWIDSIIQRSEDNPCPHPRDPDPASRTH
- test details: Elastase Inhibition--In Vitro Method (hydrolysis of MeO-Suc-Ala-Ala-Pro-Val-pNA, microtiter format)
- Format: biochemical
- measurement parameters: 5 ug/mL compound, 0.5% HSA added
metric: % inhib. (5 ug/mL) 0.5% HSA (%)

Bench note, Human sputum elastase (HSE) / Human Leukocyte Elastase (HLE) (Homo sapiens): entry COc1ccc(CCN(CC(=O)NC(C(=O)C(F)(F)F)C(C)C)C(=O)[C@@H](NC(=O)c2ccc(C(=O)NS(=O)(=O)c3ccc(Cl)cc3)cc2)C(C)C)cc1OC (stereo partly shown) , its % inhib. (5 ug/mL) 0.5% HSA = 96.3

Bench note, Human sputum elastase (HSE) / Human Leukocyte Elastase (HLE) (Homo sapiens): entry COc1ccc(CCN(CC(=O)NC(C(=O)C(F)(F)F)C(C)C)C(=O)[C@@H](NC(=O)OCc2ccccc2)C(C)C)cc1OC (stereo partly shown) , its % inhib. (5 ug/mL) 0.5% HSA = 87.8

Bench note, Human sputum elastase (HSE) / Human Leukocyte Elastase (HLE) (Homo sapiens): entry CC(C)C(NC(=O)CN(C(=O)[C@@H](NC(=O)c1ccc(C(=O)NS(=O)(=O)c2ccc(Cl)cc2)cc1)C(C)C)C1CC2CCC1C2)C(=O)C(F)(F)F (stereo partly shown) , its % inhib. (5 ug/mL) 0.5% HSA = 99.5

Bench note, Human sputum elastase (HSE) / Human Leukocyte Elastase (HLE) (Homo sapiens): entry CC(C)C(NC(=O)CN(C(=O)[C@@H](NC(=O)OCc1ccccc1)C(C)C)C1CCCC1)C(=O)C(F)(F)F (stereo partly shown) , its % inhib. (5 ug/mL) 0.5% HSA = 99.4

* * *

- system: Human sputum elastase (HSE) / Human Leukocyte Elastase (HLE) (Homo sapiens)
- Construct: Human sputum elastase (HSE ) (Elasten Products Co., Pacific, Mo.); purchased Elasten Products Co., Pacific, Mo; host or cells: human sputum
- test details: Elastase Inhibition--In Vitro Method (hydrolysis of MeO-Suc-Ala-Ala-Pro-Val-pNA, microtiter format)
- Format: biochemical
- measurement parameters: Table I; 0.5 mM substrate, 15 minutes pre-incubation
metric: IC50 (µg/mL)

Briefly, IC50 measured for COc1ccc(CCN(CC(=O)NC(C(=O)C(F)(F)F)C(C)C)C(=O)[C@@H](NC(=O)c2ccc(C(=O)NS(=O)(=O)c3ccc(Cl)cc3)cc2)C(C)C)cc1OC (stereo partly shown) : 0.0838

a. COc1ccc(CCN(CC(=O)NC(C(=O)C(F)(F)F)C(C)C)C(=O)[C@@H](NC(=O)OCc2ccccc2)C(C)C)cc1OC (stereo partly shown) [3,4-Dimethoxyphenethyl; CBZ]
b. CC(C)C(NC(=O)CN(C(=O)[C@@H](NC(=O)OCc1ccccc1)C(C)C)C1CCCC1)C(=O)C(F)(F)F (stereo partly shown) [Cyclopentyl; CBZ]
c. CC(C)C(NC(=O)CN(C(=O)[C@@H](NC(=O)c1ccc(C(=O)NS(=O)(=O)c2ccc(Cl)cc2)cc1)C(C)C)C1CC2CCC1C2)C(=O)C(F)(F)F (stereo partly shown)
Your job: order these 3 records by IC50, ascending. Put the labels in the order asked and list them.
c, b, a

Origin of measurements: patent US5221665A
